experiment: reduction of polyQ htt aggregates in cells – imaging, exon1htt(103Q)mCFP cells, high-content imaging, primary screen (AID 483); settings: exon1htt(103Q)mCFP cell line, aggregate imaging, at 2 µM; stronger effect = higher value;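 further: compound exposure lasted 3 days before fixation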
Calls of active or inactive are those of the source.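 How the source made its calls: active means visual image review flags a hit and inhibition of aggregation exceeds 20%; inconclusive means visual hit but inhibition at or below 20%; inactive means no hit on visual image review.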
quantity: inhibition of aggregation

Below: 6 compounds and their reported inhibition of aggregation.
compound: CSc1nc(C)cc(OCC(=O)N2CCOCC2)n1
test_result: 25.5% (inactive)
--
compound: CCS(=O)(=O)NCCc1cc2c(OC)ccc(OC)c2[nH]c1=O
test_result: 12.1% (inactive)
--
compound: O=C(Nc1ccc2c(c1)OCCO2)c1ccco1
test_result: -13.9% (inactive)
--
compound: CCOC(=O)C1CN(S(=O)(=O)c2ccc(C)cc2)CCN1S(=O)(=O)c1ccc(C)cc1 (centres undefined)
test_result: -36.8% (inactive)
--
compound: CCN(CC)CCCn1c(=S)[nH]c2cc(Cl)ccc2c1=O
test_result: 7.4% (inactive)
--
compound: FC(F)(F)c1cc(-c2ccccc2)nc(N2CCCCC2)n1
test_result: 3.7% (inactive)

Hey, quick one: what's inhibition of aggregation for each of these?
1. Cc1ccc(-n2ncc3c(=O)[nH]c(SCC(=O)N4CCN(c5ccccc5)CC4)nc32)cc1
2. CCOC(=O)CC(=O)Nc1c(C)cc(C)cc1C
3. O=C(c1cc(-c2cccc(O)c2)on1)N1CCN(C(c2ccccc2)c2ccccc2)CC1
4. NC(=O)c1c(NC(=O)CN2CCCC2)sc2c1CCCC2
5. CCCCP(=O)(CCCC)Cc1ccccc1O
6. CCOC(=O)N1CCC2(O)CCCCC2C1c1ccc(F)cc1 (centres undefined)
7. O=c1[nH]c(CN2CCN(Cc3ccccc3)CC2)nc2sc3c(c12)CCC3
8. CCOC(=O)c1cccc(NC(=O)c2ccco2)c1

## Output
["12.5% (inactive)", "12.8% (inactive)", "-5.2% (inactive)", "5.3% (inactive)", "0.1% (inactive)", "-11.2% (inactive)", "-0.1% (inactive)", "-3.3% (inactive)"]

---

experiment: inhibitors of TNFa-induced NFkB p65 translocation, primary screen, imaging, HUVEC, MLSMR starter and 10KST1 sets (AID 438); conditions: HUVEC TNFa-induced p65 nuclear translocation; measured here: nuclei count (cytotoxicity indicator), at 2.08 µM;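 further: compound added about 3h40 before a 20 min TNFalpha stimulation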
quantity: cell count

compound: CCOc1ccc(-c2cc(C(=O)N3CCN(c4ccccn4)CC3)c3ccccc3n2)cc1
cell count: 619
--
compound: CCOC(=O)C1CCCN(CC(=O)NC2CC2)C1 (stereo not given)
cell count: 446
--
compound: COCC(C)NC(=O)NC(=O)c1ccc(Cl)cc1 (stereo not given)
cell count: 715
--
compound: COC(=O)c1ccccc1NC(=O)c1ccc(-c2ccccc2F)o1
cell count: 516
--
compound: CC(Oc1ccc(Cl)cc1Cl)C(=O)Nc1ncccn1 (stereo not given)
cell count: 433

Hey, quick one: what's cell count for each of these?
1. Cc1cc(-n2c(C)cc(C(=O)CSc3nc4ccccc4c(=O)n3Cc3ccco3)c2C)no1
2. O=C1c2ccccc2C(Nc2ccc3c(c2)OCCO3)N1Cc1ccc2c(c1)OCO2 (stereo not given)
3. CCOC(=O)c1ccc2ncc(C(=O)OCC)c(NCCN(C)C)c2c1
4. COc1ccc(-n2c(SCC(=O)N3CCCCC3C)nnc2-c2cccnc2)cc1 (stereo not given)

## Output
1: 288; 2: 597; 3: 770; 4: 584

Hey, quick one: what's cell count for each of these?
1. COC(=O)c1cccc(NC(=O)CSc2nnc(COc3ccccc3)n2C)c1
2. O=C(COC(=O)C1CCN(S(=O)(=O)c2cccs2)CC1)c1cc2ccccc2o1
3. CC(c1ccco1)N(Cc1ccco1)C(=O)Nc1ccccc1 (stereo not given)
4. C=CCn1c(-c2cccs2)nc2nc3ccccc3nc21

## Output
[671, 536, 511, 546]

Hey, quick one: what's cell count for each of these?
1. O=C(NC1CCCC1)C(c1ccco1)N(Cc1ccccc1)C(=O)c1csnn1 (stereo not given)
2. O=C(CCn1c(=S)[nH]c2cc3c(cc2c1=O)OCO3)N1CCN(C2CCCCC2)CC1
3. Cc1ccc(C(=O)Nc2ccc(Cl)cn2)cc1S(=O)(=O)N1CCOCC1

## Output
426
473
568

Hey, quick one: what's cell count for each of these?
1. Cc1cc(=O)oc2cc(OCC#N)ccc12
2. COc1ccc(N2CCN(C(=O)Cc3ccc(-n4c(=O)[nH]c5ccccc5c4=O)cc3)CC2)cc1
3. CCOc1ccc2nc(NC(=O)C3CCCN(S(=O)(=O)c4c(C)noc4C)C3)sc2c1 (stereo not given)
4. COc1cc(C2c3c(oc4ccccc4c3=O)C(=O)N2c2ccc(C)cn2)ccc1O (stereo not given)
5. CC1(C)NC(=O)N(CC(O)CN2CCCCC2)C1=O (stereo not given)
6. CCN(CC)S(=O)(=O)c1ccc(S(=O)(=O)N(Cc2ccccn2)Cc2ccco2)cc1
7. CCc1nc(SCC(=O)NCc2ccco2)c2c3c(sc2n1)CCCC3

## Output
823
660
674
464
658
322
586

Hey, quick one: what's cell count for each of these?
1. CCC(C)NC(=O)c1cc(CC(C)C)on1 (stereo not given)
2. Cc1nnc(SCC(=O)Nc2c(Cl)cccc2Cl)[nH]c1=O
3. Cc1cc(C)cc(N(CC(=O)NC2CCC(C)CC2)S(=O)(=O)c2c(C)noc2C)c1 (stereo not given)
4. Cc1ccc2c(c1)C1CCCC3C1N2CC(=O)N3Cc1ccccc1 (stereo not given)
5. CCN(CCO)C(=O)CC(c1ccccc1)c1cc(Br)ccc1O (stereo not given)
6. CCOc1cc(C(=O)N(C)Cc2cc3ccccc3[nH]c2=O)cc(OCC)c1OCC
7. CC(=O)Nc1ccc(NS(=O)(=O)C(F)(F)F)cc1
8. CCCCNC(=O)Cn1c(=O)n(C)c2ccccc21

## Output
1. 880
2. 598
3. 753
4. 331
5. 357
6. 376
7. 417
8. 600

Hey, quick one: what's cell count for each of these?
1. Cc1cc(NC(=O)CCOc2ccccc2)no1
2. N#Cc1ccc(COC(=O)Cn2nnc(-c3ccccc3)n2)cc1
3. COC(=O)c1c(-c2cccs2)csc1NC(=O)CN1CCOCC1
4. Oc1cc(NCc2cccnc2)ccc1-c1nc2ccccc2o1
5. C=CCSC1=C(C#N)C(c2ccccc2C)CC(=O)N1 (stereo not given)

## Output
[403, 503, 345, 378, 556]

Hey, quick one: what's cell count for each of these?
1. Cc1cccc(Nc2nc(N)nc(CN3CCC(C(N)=O)CC3)n2)c1C
2. CCN(CC)CCNC(=O)c1ccc(N2CCCCC2)c(NS(=O)(=O)c2ccc(C)cc2)c1
3. CCCc1cc(=O)[nH]c(Nc2ccc(OC)c(Cl)c2)n1
4. CCCCn1c(=O)[nH]c(=O)c2c1nc(-c1ccncc1)n2CCOC
5. Cc1ccc2cc(CN(CCN3CCCC3)C(=O)Nc3ccc(F)cc3)c(=O)[nH]c2c1C
6. CCC(=O)Nc1c2c(nn1-c1ccccc1C)CSC2
7. O=C(Nc1ccc2snnc2c1)N1CCSCC1

## Output
720
370
238
542
540
592
407

Hey, quick one: what's cell count for each of these?
1. CCc1cc2c(CN3CCN(CCO)CC3)cc(=O)oc2cc1O
2. Cc1ccc(-c2nnn(CC(=O)N(Cc3cccs3)C(C(=O)NC(C)(C)C)c3ccc(C)o3)n2)o1 (stereo not given)

## Output
1. 396
2. 675

---

biological target: Voltage-gated potassium channel subunit beta-2 (Rattus norvegicus) (UniProt P62483); experiment: inhibitors of rat Kvbeta2 reductase activity – biochemical, NADPH fluorescence, primary screen (AID 622); conditions: recombinant KvBeta, 4-cyanobenzaldehyde reduction, at 10 µM, stronger effect = higher value;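 further: slope of raw intensity against log time taken from 70 to 1610 s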
Sequence (P62483 whole entry, looked up): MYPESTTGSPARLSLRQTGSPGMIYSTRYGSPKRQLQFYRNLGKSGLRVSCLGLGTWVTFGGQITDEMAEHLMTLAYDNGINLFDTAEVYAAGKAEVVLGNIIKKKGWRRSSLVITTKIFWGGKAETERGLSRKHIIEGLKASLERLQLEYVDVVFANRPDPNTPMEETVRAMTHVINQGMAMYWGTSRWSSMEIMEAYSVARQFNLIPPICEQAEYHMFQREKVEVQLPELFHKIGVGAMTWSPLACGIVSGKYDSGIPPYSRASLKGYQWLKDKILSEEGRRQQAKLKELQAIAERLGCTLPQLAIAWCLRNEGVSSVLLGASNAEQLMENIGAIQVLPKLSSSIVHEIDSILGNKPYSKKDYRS
T means recorded fluorescence slope is -0.5 or above; F means it is below -0.5.

Use these answered entries as a reference point.
compound_smiles: Cc1cccn2c(=O)c3cc(C(=O)NC4CCCC4)c(=N)n(C4CCCC4)c3nc12
category: T
//
compound_smiles: CC1(C)CC(=O)C(C=Nc2ccc3c(c2)OCO3)=C(O)C1
category: T
//
compound_smiles: Cc1cccc(NC(=O)Nc2cccc(C#N)c2)n1
category: F
//
compound_smiles: O=C(O)CCc1ccc(-c2ccc(F)cc2)n1CC(=O)O
category: T
//
compound_smiles: CC(C)CCNC(=O)C1CCN(C(=O)N(C)C)CC1
category: T
//
compound_smiles: CCOC(=O)N1CCN(C(=O)CN(c2ccc(C)cc2)S(=O)(=O)c2c(C)noc2C)CC1
category: F

## Input Tell me whether fluorescence slope is at least -0.5 here: CCCCCCn1c(SCC(=O)OC)nc2c1c(=O)[nH]c(=O)n2C
## Output T

## Input Queued: CCOC(=O)c1c(C)[nH]c(C(=O)Cn2c(=O)oc3ccccc32)c1C
## Output T

Where these numbers come from: PubChem BioAssay
